- Test system: HT-29
- experiment: Cytotoxicity against human HT-29 cells after 72 hrs by MTT assay
- Type: functional, cell-based
- run-conditions: HT-29, 72 h

{"molecule": "Cc1occ2c1C(=O)c1c(ccc(O)c1O)C2=O", "IC50 [µM]": 70}
{"molecule": "COc1ccc2c(c1O)C(=O)c1c(coc1C)C2=O", "IC50 [µM]": 31}
{"molecule": "CC1=CC(=O)C(C(C)C)=CC1=O", "IC50 [µM]": 47}
